B1: ALKBH7 (parent)
chain: SVICRSLPEGMGPGESGQPPPAC

Variants of: B1
assay.method.text: protein stability index of a GFP-peptide fusion (GPS, HEK-293T) (PSI 1-6); higher = more stable;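 further: lentivirally expressed fusions sorted by FACS into six bins by GFP to DsRed ratio, PSI derived from sequencing read proportions per bin multiplied by bin number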
condition: c terminus: native
Please use true whenever protein stability index is not below 2, and false whenever it is.

hey, is protein stability index for this one >= 2? C23M
true

Decide: is the reported value of protein stability index for C23E equal to or greater than 2?
true

Determine whether this variant has protein stability index no lower than 2: P21A
false

Could you verify whether the entry C4I shows protein stability index of no less than 2?
true

Kindly determine if protein stability index recorded for G12I is above or exactly 2.
false

In plain terms: is recorded protein stability index at least 2 for P13D ?
true

Form field: protein stability index at least 2? Entry: E9T
false

Is it the case that G14R has protein stability index reaching or exceeding 2?
false

Is it the case that A22V has protein stability index reaching or exceeding 2?
true

Determine whether measured protein stability index meets or exceeds 2 for P13I
false

hey, is protein stability index for this one >= 2? P8G
true

Textbook exercise: given the entry G12A , state whether its protein stability index is greater than or equal to 2.
true

Confirm if protein stability index reported for the variant P13A is 2 or above.
false

State whether the measured protein stability index reaches 2, counting equality as reaching it, for I3Q
false

Decide: is the reported value of protein stability index for P19H equal to or greater than 2?
true

Decide: protein stability index of S6L >= 2?
false

Hi, just wondering whether C23F shows protein stability index of 2 or higher.
true

Confirm if protein stability index reported for the variant I3N is 2 or above.
true

Reported protein stability index at or above 2? S16G
true

API: above_or_equal(metric=protein stability index, cutoff=2) for item L7T
true

Data origin, for the record: the supplement of paper PMC10567573
